target: protein-protein interaction between Kras and SOS1 (biotin-tagged human Kras loaded with GDP, His-tagged human SOS1) (Homo sapiens (Human), UniProt P01116, G12D); assay: Protein-protein interaction inhibition between Kras and SOS1 (KrasG12D-SOS PPI) using AlphaScreen; assay type: biochemical; settings: AlphaScreen; biotin-tagged human Kras loaded with GDP, His-tagged human SOS1; read-out: KRAS G12D-SOS PPI IC50
pIC50: −log10 of the molar value. Bridge positions count the residues as written; N and C are the ends. Square brackets hold non-standard residues; d marks the D form. Peptide text beside a SMILES is read from it. * marks the point of attachment. hPhe(3-Cl-4-CF3) = N[C@@H](CCc1ccc(C(F)(F)F)c(Cl)c1)C(=O)O; NMePhe(4-CF3) = CN[C@@H](Cc1ccc(C(F)(F)F)cc1)C(=O)O; NMeNle(6-CHF2) = CN[C@@H](CCCCC(F)F)C(=O)O; NMeGly(cPent) = CN[C@H](C(=O)O)C1CCCC1; NMeCha = CN[C@@H](CC1CCCCC1)C(=O)O; Hyp = O=C(O)[C@@H]1C[C@@H](O)CN1; NMeChg = CN[C@H](C(=O)O)C1CCCCC1; NMeD = CN[C@@H](CC(=O)O)C(=O)O; NMeL = CN[C@@H](CC(C)C)C(=O)O; NMeV = CN[C@H](C(=O)O)C(C)C; d(β3hA) = C[C@@H](N)CC(=O)O; NMeAbu = CC[C@H](NC)C(=O)O; Morpholide = C1CN(*)CCO1; NMeA = CN[C@@H](C)C(=O)O; Piperidide = C1CCN(*)CC1; dNMeA = CN[C@H](C)C(=O)O; Ac5c = NC1(C(=O)O)CCCC1; Aze = O=C(O)[C@@H]1CCN1; Sar = CNCC(=O)O
Outcome label depends on pIC50 relative to 8: at/above gives rule met, below gives rule not met.

* CCO[C@@H]1C[C@H]2C(=O)NC3(CCCC3)C(=O)N(C)[C@@H](C3CCCCC3)C(=O)N(C)[C@H](C(=O)N3CCOCC3)CC(=O)N(C)[C@@H](CC(C)C)C(=O)N[C@@H]([C@@H](C)CC)C(=O)N(C)CC(=O)N(C)CC(=O)N(C)[C@@H](CC3CCCCC3)C(=O)N(C)CC(=O)N[C@@H](CCc3ccc(C(F)(F)F)c(Cl)c3)C(=O)N2C1 [Compound 1990] ([NMeL]I[Sar][Sar][NMeCha][Sar][hPhe(3-Cl-4-CF3)][Hyp](Et)[Ac5c][NMeChg][NMeD]-Morpholide; lactam N-11) | rule met
* CC[C@H](C)[C@@H]1NC(=O)[C@H](CC(C)C)N(C)C(=O)C[C@@H](C)NC(=O)[C@H](C(C)C)N(C)C(=O)C2(CCCC2)NC(=O)[C@@H]2CCCN2C(=O)[C@H](CCc2ccc(C(F)(F)F)c(Cl)c2)NC(=O)CN(C)C(=O)[C@H](CC2CCCCC2)N(C)C(=O)[C@@H]2CCN2C(=O)[C@H](CC)N(C)C1=O [Compound 1593] (cyclo([Ac5c][NMeV][d(β3hA)][NMeL]I[NMeAbu][Aze][NMeCha][Sar][hPhe(3-Cl-4-CF3)]P)) | rule not met
* CC[C@H](C)[C@@H]1NC(=O)[C@H](CCCCC(F)F)N(C)C(=O)C[C@@H](C(=O)N2CCCCC2)N(C)C(=O)[C@H](C(C)C)N(C)C(=O)C2(CCCC2)NC(=O)[C@@H]2CCCN2C(=O)[C@H](CCc2ccc(C(F)(F)F)c(Cl)c2)NC(=O)CN(C)C(=O)[C@H](CC2CCCCC2)N(C)C(=O)[C@@H]2CCN2C(=O)[C@H](C)N(C)C1=O [Compound 94] ([NMeNle(6-CHF2)]I[NMeA][Aze][NMeCha][Sar][hPhe(3-Cl-4-CF3)]P[Ac5c][NMeV][NMeD]-Piperidide; lactam N-11) | rule met

# ---- query molecule ----
In: Decide: pIC50 of CC[C@H](C)[C@@H]1NC(=O)[C@H](CC(C)C)N(C)C(=O)C[C@@H](C)NC(=O)[C@H](C2CCCC2)N(C)C(=O)C2(CCCC2)NC(=O)[C@@H]2CCCN2C(=O)[C@H](CCc2ccc(C(F)(F)F)c(Cl)c2)NC(=O)[C@@H](C)N(C)C(=O)[C@H](Cc2ccc(C(F)(F)F)cc2)N(C)C(=O)[C@@H]2CCN2C(=O)CN(C)C1=O [Compound 1468] (cyclo([Ac5c][NMeGly(cPent)][d(β3hA)][NMeL]I[Sar][Aze][NMePhe(4-CF3)][dNMeA][hPhe(3-Cl-4-CF3)]P)) >= 8?
Out: rule not met

---

IC50: recorded values
molecular target: protein-protein interaction between Kras and SOS1 (biotin-tagged human Kras loaded with GDP, His-tagged human SOS1) (Homo sapiens (Human), UniProt P01116, G12D); experiment: Protein-protein interaction inhibition between Kras and SOS1 (KrasG12D-SOS PPI) using AlphaScreen; assay type: biochemical; conditions: AlphaScreen; biotin-tagged human Kras loaded with GDP, His-tagged human SOS1; read-out: KRAS G12D-SOS PPI IC50
Bridge positions count the residues as written; N and C are the ends. Square brackets hold non-standard residues; d marks the D form. Peptide text beside a SMILES is read from it. * marks the point of attachment. hPhe(3-Cl-4-CF3) = N[C@@H](CCc1ccc(C(F)(F)F)c(Cl)c1)C(=O)O; 3Oxa8azabicyclo(3.2.1)octane = C1CC2COCC1N2*; NMePhe(4-Me) = CN[C@@H](Cc1ccc(C)cc1)C(=O)O; NMeGly(cPent) = CN[C@H](C(=O)O)C1CCCC1; NMeAhp(2) = CCCCC[C@H](NC)C(=O)O; NMeD = CN[C@@H](CC(=O)O)C(=O)O; d(β3hA) = C[C@@H](N)CC(=O)O; NMeS = CN[C@@H](CO)C(=O)O; NMeA = CN[C@@H](C)C(=O)O; Ac5c = NC1(C(=O)O)CCCC1; Aze = O=C(O)[C@@H]1CCN1; Sar = CNCC(=O)O; Propyl = CCC*
Write the number in nM without appending the unit.

* CCCCC[C@H]1C(=O)N[C@@H]([C@@H](C)CC)C(=O)N(C)[C@@H](C)C(=O)N2CC[C@H]2C(=O)N(C)[C@@H](COCCC)C(=O)N(C)CC(=O)N[C@@H](CCc2ccc(C(F)(F)F)c(Cl)c2)C(=O)N2CCC[C@H]2C(=O)NC2(CCCC2)C(=O)N(C)[C@@H](C2CCCC2)C(=O)N(C)[C@H](C(=O)N2C3CCC2COC3)CC(=O)N1C [Compound 622] ([NMeAhp(2)]I[NMeA][Aze][NMeS](Propyl)[Sar][hPhe(3-Cl-4-CF3)]P[Ac5c][NMeGly(cPent)][NMeD]-{3Oxa8azabicyclo(3.2.1)octane}; lactam N-11) | 1.7

// IC50 lookup, compound = CC[C@H](C)[C@@H]1NC(=O)[C@H](C)N(C)C(=O)C[C@@H](C)NC(=O)[C@H](C2CCCC2)N(C)C(=O)C2(CCCC2)NC(=O)[C@@H]2CCCN2C(=O)[C@H](CCc2ccc(C(F)(F)F)c(Cl)c2)NC(=O)CN(C)C(=O)[C@H](Cc2ccc(C)cc2)N(C)C(=O)[C@@H]2CCN2C(=O)[C@H](C)N(C)C1=O [Compound 1514] (cyclo([Ac5c][NMeGly(cPent)][d(β3hA)][NMeA]I[NMeA][Aze][NMePhe(4-Me)][Sar][hPhe(3-Cl-4-CF3)]P)) , result: 1

---

pIC50: recorded values
molecular target: protein-protein interaction between Kras and SOS1 (biotin-tagged human Kras loaded with GDP, His-tagged human SOS1) (Homo sapiens (Human), UniProt P01116, G12D); test: Protein-protein interaction inhibition between Kras and SOS1 (KrasG12D-SOS PPI) using AlphaScreen; assay type: biochemical; details: AlphaScreen; biotin-tagged human Kras loaded with GDP, His-tagged human SOS1; read-out: KRAS G12D-SOS PPI IC50;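 also: kras produced in E. coli, Ni-coupled donor beads and streptavidin acceptor beads, excitation 680 nm with emission detected at 520–620 nm via singlet oxygen transfer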
Bridge positions count the residues as written; N and C are the ends. Square brackets hold non-standard residues; d marks the D form. Peptide text beside a SMILES is read from it. * marks the point of attachment. hPhe(3,5-F2-4-CF3) = N[C@@H](CCc1cc(F)c(C(F)(F)F)c(F)c1)C(=O)O; hPhe(3-Cl-4-CF3) = N[C@@H](CCc1ccc(C(F)(F)F)c(Cl)c1)C(=O)O; NMePhe(4-Me) = CN[C@@H](Cc1ccc(C)cc1)C(=O)O; NMeGly(cPent) = CN[C@H](C(=O)O)C1CCCC1; NMeCha = CN[C@@H](CC1CCCCC1)C(=O)O; NMeAhp(2) = CCCCC[C@H](NC)C(=O)O; NMeI = CC[C@H](C)[C@H](NC)C(=O)O; NMeD = CN[C@@H](CC(=O)O)C(=O)O; NMeL = CN[C@@H](CC(C)C)C(=O)O; Azetidin(1-yl) = C1CN(*)C1; NMeA = CN[C@@H](C)C(=O)O; Ac5c = NC1(C(=O)O)CCCC1; Aze = O=C(O)[C@@H]1CCN1; Sar = CNCC(=O)O
For clarity, pIC50 is expressed as the negative log10 of concentration in mol/L.

* CC[C@H](C)[C@@H]1NC(=O)[C@H](CC(C)C)N(C)C(=O)C[C@@H](C(=O)N(C)C)N(C)C(=O)[C@H]([C@@H](C)CC)N(C)C(=O)C2(CCCC2)NC(=O)[C@@H]2CCCN2C(=O)[C@H](CCc2cc(F)c(C(F)(F)F)c(F)c2)NC(=O)CN(C)C(=O)[C@H](Cc2ccc(C)cc2)N(C)C(=O)[C@@H]2CCN2C(=O)[C@H](C)N(C)C1=O [Compound 1080] ([NMeL]I[NMeA][Aze][NMePhe(4-Me)][Sar][hPhe(3,5-F2-4-CF3)]P[Ac5c][NMeI][NMeD]-NMe2; lactam N-11) | 9.00

Next up:
// pIC50 lookup, molecule = CCCCC[C@H]1C(=O)N[C@@H]([C@@H](C)CC)C(=O)N(C)[C@@H](C)C(=O)N2CC[C@H]2C(=O)N(C)[C@@H](CC2CCCCC2)C(=O)N(C)CC(=O)N[C@@H](CCc2ccc(C(F)(F)F)c(Cl)c2)C(=O)N2CCC[C@H]2C(=O)NC2(CCCC2)C(=O)N(C)[C@@H](C2CCCC2)C(=O)N(C)[C@H](C(=O)N2CCC2)CC(=O)N1C [Compound 144] ([NMeAhp(2)]I[NMeA][Aze][NMeCha][Sar][hPhe(3-Cl-4-CF3)]P[Ac5c][NMeGly(cPent)][NMeD]-{Azetidin(1-yl)}; lactam N-11) , result: 8.96
